# Assayed target: dopamine transport (DAT) sites (Rattus norvegicus, UniProt P23977)
# Construct: from tissue; host or cells: Sprague-Dawley rat striatum membranes
# Sequence (P23977 whole entry): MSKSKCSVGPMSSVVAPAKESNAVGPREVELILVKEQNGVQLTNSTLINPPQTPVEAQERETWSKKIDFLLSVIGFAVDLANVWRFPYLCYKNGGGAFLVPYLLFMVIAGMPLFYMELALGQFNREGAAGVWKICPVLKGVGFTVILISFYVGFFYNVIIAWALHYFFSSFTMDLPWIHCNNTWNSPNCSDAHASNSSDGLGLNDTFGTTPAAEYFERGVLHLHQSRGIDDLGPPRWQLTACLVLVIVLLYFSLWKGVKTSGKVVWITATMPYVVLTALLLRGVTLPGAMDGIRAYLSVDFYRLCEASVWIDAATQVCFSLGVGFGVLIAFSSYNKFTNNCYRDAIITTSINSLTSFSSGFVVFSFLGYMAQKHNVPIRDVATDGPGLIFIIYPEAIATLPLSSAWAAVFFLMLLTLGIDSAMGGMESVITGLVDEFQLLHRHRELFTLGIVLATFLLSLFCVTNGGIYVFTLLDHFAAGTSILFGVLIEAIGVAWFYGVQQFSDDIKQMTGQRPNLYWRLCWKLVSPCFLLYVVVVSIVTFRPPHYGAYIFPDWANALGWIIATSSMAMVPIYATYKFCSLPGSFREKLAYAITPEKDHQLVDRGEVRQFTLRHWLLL
# Procedure details: DAT binding, displacement of [125I]RTI-55 in rat striatum membranes
Counter-ions that a name gives are not always drawn.
Quantity name: pIC50
Notebook: values listed as pIC50 are -log10 of the concentration (mol/L).

>  <Compound>
CCN(CC)C(=O)C1(c2ccccc2)CC1CN (centres unmarked) [HD-283, Milnacipran, reference compound]

>  <pIC50>
5.71

$$$$

Moving on to the next compound.
Ask | Give pIC50 (dopamine transport (DAT) sites (Rattus norvegicus, UniProt P23977)) of the following compound: CNCC1CC1(C(=O)OC)c1ccc2ccccc2c1 (racemic) [HD-287, hydrochloride]
Reply | 6.75

---

# Assayed target: dopamine transport (DAT) sites (Rattus norvegicus)
# Construct: from tissue; host or cells: Sprague-Dawley rat striatum membranes
# Procedure details: DAT binding, displacement of [125I]RTI-55 in rat striatum membranes
# Conditions: [125I]RTI-55 displacement, rat striatum membranes; reported as IC50; read-out: DAT
Where a name gives a salt, the structure may show the parent alone.
Recorded log10 IC50, one value per entry.
Answers are given as log10 of IC50 in nM.

The following compounds have reported results that may help.
>  <Compound>
CNC[C@H]1C[C@@]1(C(=O)OC)c1ccc(Br)c(Br)c1 [HD-328]

>  <log10 IC50>
1.94

$$$$
>  <Compound>
CNC[C@@H]1C[C@]1(C(=O)OC)c1ccc(Br)c(Br)c1 [HD-329]

>  <log10 IC50>
1.55

$$$$
>  <Compound>
CNCC1CC1(C(=O)OC)c1ccccc1Cl (racemic) [HD-290]

>  <log10 IC50>
3.26

$$$$
>  <Compound>
CNCC1CC1(C(=O)OC)c1ccccc1 (racemic) [HD-284]

>  <log10 IC50>
3.25

$$$$
>  <Compound>
CNCC1CC1(C(=O)OC)c1ccc(Br)cc1 (racemic) [HD-285]

>  <log10 IC50>
3.16

$$$$
>  <Compound>
CNC[C@@H]1C[C@]1(C(=O)OC)c1ccc(Br)cc1 [HD-325]

>  <log10 IC50>
2.52

$$$$
>  <Compound>
CNC[C@H]1C[C@@]1(C(=O)OC)c1ccc2ccccc2c1 [HD-330]

>  <log10 IC50>
2.50

$$$$
>  <Compound>
CNCC1CC1(C(=O)OC)c1ccc(OC)c(OC)c1 (racemic) [HD-289, hydrochloride]

>  <log10 IC50>
3.13

$$$$

Kindly review the next compound as well.
Ask | Quick one: log10 IC50 of CNC[C@@H]1C[C@]1(C(=O)OC)c1ccc2ccccc2c1 [HD-331] ?
Reply | 2.51

---

# Assayed target: norepinephrine transporters (NET) (Rattus norvegicus)
# Construct: Whole rat brains (minus cerebellum) are homogenized; from tissue; host or cells: rat whole brain minus cerebellum, membranes
# Sequence (Q9WTR4 1-597): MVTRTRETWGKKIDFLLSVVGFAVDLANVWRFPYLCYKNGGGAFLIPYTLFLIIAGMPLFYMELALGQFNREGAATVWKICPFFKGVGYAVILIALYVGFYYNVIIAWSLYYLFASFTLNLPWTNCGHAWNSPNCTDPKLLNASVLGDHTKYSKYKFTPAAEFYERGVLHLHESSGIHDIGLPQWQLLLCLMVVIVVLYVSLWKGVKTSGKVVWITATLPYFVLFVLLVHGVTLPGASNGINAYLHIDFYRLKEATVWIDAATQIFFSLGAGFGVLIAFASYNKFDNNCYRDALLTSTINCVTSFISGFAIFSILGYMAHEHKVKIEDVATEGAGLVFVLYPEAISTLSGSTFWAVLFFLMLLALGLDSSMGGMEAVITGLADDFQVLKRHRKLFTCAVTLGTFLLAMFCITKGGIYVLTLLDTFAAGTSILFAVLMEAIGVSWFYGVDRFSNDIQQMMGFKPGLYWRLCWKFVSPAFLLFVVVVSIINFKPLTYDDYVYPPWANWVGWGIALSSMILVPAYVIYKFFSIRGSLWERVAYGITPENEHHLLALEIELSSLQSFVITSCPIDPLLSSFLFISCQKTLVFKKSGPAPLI
# Procedure details: NET binding, displacement of [3H]nisoxetine in rat brain membranes
# Conditions: [3H]nisoxetine displacement, rat brain membranes; Ki by Cheng-Prusoff; read-out: NET
Where a name gives a salt, the structure may show the parent alone.
Criterion: Ki strictly less than 3 nM. Met: yes. Not met: no.

Example entries and their recorded answers appear below.
>  <Compound>
CNCC1CC1(C(=O)OC)c1ccc(Br)cc1 (racemic)

>  <Category>
no

$$$$
>  <Compound>
CNC[C@@H]1C[C@]1(C(=O)OC)c1ccc(-c2ccccc2)cc1

>  <Category>
no

$$$$
>  <Compound>
CNCC1CC1(C(=O)OC)c1ccc(Cl)c(Cl)c1 (racemic)

>  <Category>
yes

$$$$
>  <Compound>
CNCC1CC1(C(=O)OC)c1ccc(-c2ccccc2)cc1 (racemic) [HD-286, hydrochloride]

>  <Category>
no

$$$$
>  <Compound>
CNC[C@@H]1C[C@]1(C(=O)OC)c1ccc(Br)c(Br)c1

>  <Category>
yes

$$$$

Ask | Quick check: does CNCC1CC1(C(=O)OC)c1ccc2ccccc2c1 (racemic) [HD-287, hydrochloride] have Ki under 3 nM?
Reply | no

Ask | Follow-up entry: CNCC1CC1(C(=O)OC)c1ccccc1Cl (racemic)
Reply | no

These entries and their values trace back to patent US10207984B2.
